Each recorded value in this set is attributed to ChEMBL document CHEMBL4513216.

test-protocol: Toxicity liver stage against HepG2, at 10uM
Type: cell-based
Set-up: test concentration 10 uM, cell line HepG2-A16-CD81EGFP
condition-parameters: human, HepG2-A16-CD81EGFP cells; read-out: INHIBITION
Reported values of cytotoxicity at 10 µM for individual entries
Kindly provide the numeric value in % only, without the unit symbol.

Solved cases below.
O=C(CCNC(=O)c1ccoc1)Nc1cc(F)cc(F)c1 = -7.41
COCCNC(=O)NCc1ccc(OC(C)C)c(F)c1 = -8.48
O=C(Nc1ccc(F)cc1)C1CSCN1 (stereo unspecified) = -2.76
COc1ccc2c(c1)C(C(=O)N(C)CCCc1nccn1C)CC(=O)N2 (stereo unspecified) = -56
CN1CCN(c2ncccc2CNc2ncccc2C#N)CC1 = 15.4
Cc1cncc(C(=O)N2CCC3(CC2)C(=O)Nc2ccccc23)c1 = -137
CC(=O)Nn1c(C)cc(CN2CCC(c3ccncc3)CC2)c1C = 4.61
COCCc1noc(C2CCCN(c3nc(N)nc4c3CCCC4)C2)n1 (stereo unspecified) = 48.1

### Prompt Given O=C(O)C1(Cc2cc(-c3cccc(F)c3)no2)CCOCC1 , state its recorded cytotoxicity at 10 µM.
### Response -4.97

### Prompt What value of measured cytotoxicity at 10 µM is listed for CCOc1ccc(C(=O)N2CCC(Oc3ccccc3)(C(=O)O)CC2)o1 ?
### Response 14.1

### Prompt May I ask what cytotoxicity at 10 µM has been recorded for COc1cccc([C@@H]2CCN(Cc3ccc4ccccc4n3)C[C@H]2O)c1 ?
### Response -16.5

### Prompt Entry O=C1[C@@H]2CCN(C3CCOCC3)C[C@@H]2OCCN1Cc1cccnc1 has what cytotoxicity at 10 µM?
### Response -80

### Prompt Bench note: what cytotoxicity at 10 µM did Cn1ccnc1C1CCCN(C(=O)c2ccncc2F)C1 (stereo unspecified) show?
### Response 3.18

====

test-protocol: Toxicity liver stage against HepG2, at 10uM
Type: cell-based
Design: test concentration 10 uM, cell line HepG2-A16-CD81EGFP
condition-parameters: human, HepG2-A16-CD81EGFP cells; read-out: INHIBITION
test-readout: cytotoxicity at 10 µM (%)
// units = %; emit number, no label

Solved entries (count: 5):
CC(=O)N1CCN([C@@H]2CCC[C@@H](N(C)C(=O)C3CC3)[C@H]2O)CC1 = -5.97
CO[C@H]1CN(Cc2ccc(F)cc2)CC[C@@]12CCCO2 = -24.5
CC(=O)N1CCCC1CCc1ccc(Cl)nn1 (stereo unspecified) = 3.39
COc1ccccc1CN(C)C(=O)NCc1c(C)cc(C)[nH]c1=O = -4.98
COc1ccc(CCC(=O)N2CCNCC2C(=O)N2CCCC2)cc1 (stereo unspecified) = 1.18

### Prompt Query (molecule): CC(C)c1nnc2n1CCN(Cc1csc(CC(=O)N(C)C)n1)C2 ; field requested: cytotoxicity at 10 µM
### Response -15.9

### Prompt // cytotoxicity at 10 µM lookup, key: CC(C)Cn1nnnc1SC(C(=O)NCc1cccnc1)C(C)C (stereo unspecified)
### Response -4.05

### Prompt cytotoxicity at 10 µM for CC(C)[C@H]1CN(Cc2nccn2C)C[C@@H]1NC(=O)CCS(C)(=O)=O ?
### Response -8.85

====

test-protocol: Toxicity liver stage against HepG2, at 10uM
Format: cell-based
Parameters: test concentration 10 uM, cell line HepG2-A16-CD81EGFP
condition-parameters: human, HepG2-A16-CD81EGFP cells; read-out: INHIBITION
# cytotoxicity at 10 µM per entry
Give your result in % as a bare value.

Check out these entries, answers already filled in.
Cc1n[nH]c(C)c1CCC(=O)N(C)Cc1cn[nH]c1-c1ccc(F)cc1 = 7.86
Cn1nc(CNC(=O)c2nc3ccccc3s2)c2c1CCOC2 = -3.16
CCN(C(=O)c1ccc2nnc(C3CCN(S(C)(=O)=O)C3)n2c1)C(C)C (stereo unspecified) = -110
OC(CN1CCC(c2ccn[nH]2)CC1)c1cc(F)ccc1F (stereo unspecified) = -12.3

### Prompt Which cytotoxicity at 10 µM value is on record for CCn1cc(C#N)c(=O)c2cc(Br)ccc21 ?
### Response 1.35

### Prompt I'd like to know its cytotoxicity at 10 µM. The compound in question is COC(=O)CCc1c(C)nc2cc(O)nn2c1C
### Response -7.18

### Prompt State the recorded cytotoxicity at 10 µM for this entry: CCn1ccnc1CN1CCCN(C(=O)c2cccc(C#N)c2)CC1
### Response -12.2

### Prompt GET /values?readout=cytotoxicity at 10 µM&item= Cc1nn(C)c(C)c1CCC(=O)NCc1csc(N2CCCC2)n1
### Response -4.55

### Prompt Item CC(=O)N[C@@H]1CN(Cc2ccccc2C(=O)O)C[C@H]1C(C)C has what recorded cytotoxicity at 10 µM?
### Response 3.15

### Prompt // cytotoxicity at 10 µM lookup, key: O=C(c1cccc(C2CCNC2)c1)N1CCC(c2ncc[nH]2)CC1 (stereo unspecified)
### Response -5.03

### Prompt // query cytotoxicity at 10 µM value for entry CCOc1ccccc1CC(=O)N1C[C@@H](C(=O)O)[C@H](C2CC2)C1
### Response 1.12
